Data origin, for the record: paper PMC11086051

Target under test: T1, SpoVG (Borrelia burgdorferi, UniProt O51726 1-97)
T1 sequence: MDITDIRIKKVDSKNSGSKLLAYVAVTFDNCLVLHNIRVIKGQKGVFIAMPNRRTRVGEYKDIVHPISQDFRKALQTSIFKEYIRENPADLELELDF
Test method notes: EMSA
Experimental readout: Kd (nM)
Note: unit nM is implicit; provide only the numeric part.

Input: # get_value(readout='Kd', item= UAUGUACUUUUUGCGGGAGGCUUAUAA (ssRNA) [spoVG RNA] )
Output: 59
